Test system: CAOV3
Assay: Primary qHTS to identify gynecologic anti-cancer compounds using libraries of approved drugs and bioactive compounds (AID 1345084); note: nearly all actives have a fitted effect of over 55% in size
Conditions: Gynecologic cancer cell panel viability, ATPlite luminescence, 48 h; series mostly up to 57.5 µM
From the text: National Center for Advancing Translational Sciences [NCATS] Assay Overview: Chemotherapeutic drug responses vary from cancer to cancer and from patient to patient. […] ATPlite is a luminescence based assay reliant on the conversion of a luciferase substrate to light in the presence of ATP. As a cytotoxic compound will suppress growth and decrease the number of cells, the concentration of ATP will decrease, and less light signal will be detected in the well. […]
Inconclusive results are not listed. The source made the active and inactive calls. Calls come from the whole dose curve; as a rule, active = well fitted cell-killing curve with a large enough effect; inconclusive = small, poorly fitted or top-dose-only effect, or effect the other way; inactive = flat fitted curve, though single readings scatter.
Outcomes: active, inactive

[
  {
    "compound": "C[C@H]1C[C@@H]2[C@H]([C@@H](O)C[C@@]3(C)[C@H]2CC[C@]3(O)C(=O)CO)[C@@]2(C)C=CC(=O)C=C12",
    "tested.on": "CAOV3",
    "class.name": "inactive"
  },
  {
    "compound": "CO/N=C(\\C(=O)O)c1csc(NC(=O)CCl)n1",
    "tested.on": "CAOV3",
    "class.name": "inactive"
  },
  {
    "compound": "CC(C)(Oc1ccc(Cl)cc1)C(=O)OCCCOC(=O)C(C)(C)Oc1ccc(Cl)cc1",
    "tested.on": "CAOV3",
    "class.name": "inactive"
  },
  {
    "compound": "C=CC[N+]1([C@H]2C[C@H]3[C@@H]4CC[C@H]5C[C@H](OC(C)=O)[C@@H](N6CCCCC6)C[C@]5(C)[C@H]4CC[C@]3(C)[C@H]2OC(=O)CC)CCCCC1",
    "tested.on": "CAOV3",
    "class.name": "inactive"
  },
  {
    "compound": "CC(=O)OC[C@H]1O[C@@H](OC(C)=O)[C@H](OC(C)=O)[C@@H]1OC(C)=O",
    "tested.on": "CAOV3",
    "class.name": "inactive"
  },
  {
    "compound": "CCN(CC)CCN",
    "tested.on": "CAOV3",
    "class.name": "inactive"
  },
  {
    "compound": "CCC(=O)O[C@H]1[C@H](O[C@@H]2[C@@H](C)[C@H](O[C@H]3C[C@@](C)(OC)[C@@H](O)[C@H](C)O3)[C@@H](C)C(=O)O[C@H](CC)[C@@](C)(O)[C@H](O)[C@@H](C)C(=O)[C@H](C)C[C@@]2(C)O)O[C@H](C)C[C@@H]1N(C)C",
    "tested.on": "CAOV3",
    "class.name": "inactive"
  },
  {
    "compound": "CC(=O)N[C@@H](CCC(N)=O)C(=O)O",
    "tested.on": "CAOV3",
    "class.name": "inactive"
  },
  {
    "compound": "CN1N=C(C(N)=O)CCC1=O",
    "tested.on": "CAOV3",
    "class.name": "inactive"
  },
  {
    "compound": "O=C(CS(=O)Cc1ccco1)NC/C=C\\COc1cc(CN2CCCCC2)ccn1 (centres undefined)",
    "tested.on": "CAOV3",
    "class.name": "inactive"
  },
  {
    "compound": "COc1ccc2nc(SCc3ncc(C)c(OC)c3C)[nH]c2c1",
    "tested.on": "CAOV3",
    "class.name": "inactive"
  },
  {
    "compound": "c1ccc(C(O[C@H]2CCCN(CCc3ccc4c(c3)OCO4)C2)c2ccccc2)cc1",
    "tested.on": "CAOV3",
    "class.name": "inactive"
  },
  {
    "compound": "Cc1nc2n(c(=O)c1CCN1CCC(C(=O)c3ccc(F)cc3)CC1)CCS2",
    "tested.on": "CAOV3",
    "class.name": "inactive"
  },
  {
    "compound": "Cc1c(F)cc2c(=O)c(C(=O)O)cn3c2c1CCC3C (centres undefined)",
    "tested.on": "CAOV3",
    "class.name": "inactive"
  },
  {
    "compound": "c1ccc2occc2c1",
    "tested.on": "CAOV3",
    "class.name": "inactive"
  },
  {
    "compound": "Cc1ccc2c(Cl)cc(Cl)c(O)c2n1",
    "tested.on": "CAOV3",
    "class.name": "inactive"
  },
  {
    "compound": "COc1cc(C(=O)NC2CCCNC2)cc(OC)c1OC (centres undefined)",
    "tested.on": "CAOV3",
    "class.name": "inactive"
  },
  {
    "compound": "Nc1cc(C(F)(F)F)ccc1S",
    "tested.on": "CAOV3",
    "class.name": "inactive"
  },
  {
    "compound": "O=C(O)/C=C(\\CC(=O)O)C(=O)O",
    "tested.on": "CAOV3",
    "class.name": "inactive"
  },
  {
    "compound": "C/C=C(/C(=C/C)c1ccc(OC(C)=O)cc1)c1ccc(OC(C)=O)cc1",
    "tested.on": "CAOV3",
    "class.name": "inactive"
  },
  {
    "compound": "COc1cc(C=O)ccc1O",
    "tested.on": "CAOV3",
    "class.name": "inactive"
  },
  {
    "compound": "CCC(CN)=C(c1ccccc1)c1ccccc1",
    "tested.on": "CAOV3",
    "class.name": "inactive"
  },
  {
    "compound": "CCCc1ccc(OCC(=O)N2CCN(C(=O)COc3ccc(CCC)cc3OC)CC2)c(OC)c1",
    "tested.on": "CAOV3",
    "class.name": "inactive"
  },
  {
    "compound": "CCOC(=O)NNc1nncc2ccccc12",
    "tested.on": "CAOV3",
    "class.name": "inactive"
  },
  {
    "compound": "CCOC(=O)C(=O)c1csc(NC=O)n1",
    "tested.on": "CAOV3",
    "class.name": "inactive"
  },
  {
    "compound": "CN(C)c1cc2c(Nc3ccc4c(cnn4Cc4ccccc4)c3)ncnc2cn1",
    "tested.on": "CAOV3",
    "class.name": "inactive"
  },
  {
    "compound": "N#C/C(=C1/SC[C@@H](c2ccc(Cl)cc2Cl)S1)n1ccnc1",
    "tested.on": "CAOV3",
    "class.name": "inactive"
  },
  {
    "compound": "COC(=O)C1=C(C)NC(COC(N)=O)=C(C(=O)OC(C)C)C1c1cccc(Cl)c1Cl (centres undefined)",
    "tested.on": "CAOV3",
    "class.name": "inactive"
  },
  {
    "compound": "O=C(OCC(O)CO)c1ccccc1Nc1ccnc2c(C(F)(F)F)cccc12 (centres undefined)",
    "tested.on": "CAOV3",
    "class.name": "inactive"
  },
  {
    "compound": "Nc1nnnn1-c1ccccc1",
    "tested.on": "CAOV3",
    "class.name": "inactive"
  },
  {
    "compound": "CCOc1ncc(F)c(=O)[nH]1",
    "tested.on": "CAOV3",
    "class.name": "inactive"
  },
  {
    "compound": "CC(C)C(C)(C)C(C)(C)C(C)(C)S",
    "tested.on": "CAOV3",
    "class.name": "inactive"
  },
  {
    "compound": "CCOC(=O)Oc1ccc(CCNC(=O)[C@H](CCSC)NC(C)=O)cc1OC(=O)OCC",
    "tested.on": "CAOV3",
    "class.name": "inactive"
  },
  {
    "compound": "Oc1cccc2[nH]ccc12",
    "tested.on": "CAOV3",
    "class.name": "inactive"
  },
  {
    "compound": "C[N+]1(C)CCC(OC(=O)C(O)(c2ccccc2)C2CCCC2)C1 (centres undefined)",
    "tested.on": "CAOV3",
    "class.name": "inactive"
  },
  {
    "compound": "CCCc1ncc(C(=O)O)s1",
    "tested.on": "CAOV3",
    "class.name": "inactive"
  },
  {
    "compound": "CCC(C(=O)NC(=O)NC(C)=O)c1ccccc1 (centres undefined)",
    "tested.on": "CAOV3",
    "class.name": "inactive"
  },
  {
    "compound": "CCCCCCCCCCCCCCCCCCNC(=O)OC1CCN(C(=O)OC[C@H](COC(=O)N(Cc2cccc[n+]2CC)C(=O)c2ccccc2OC)OC)CC1",
    "tested.on": "CAOV3",
    "class.name": "active"
  },
  {
    "compound": "CCCN(CCC)C(=O)C(CCC(=O)OCCCN1CCN(CCOC(=O)Cc2c(C)n(C(=O)c3ccc(Cl)cc3)c3ccc(OC)cc23)CC1)NC(=O)c1ccccc1 (centres undefined)",
    "tested.on": "CAOV3",
    "class.name": "inactive"
  },
  {
    "compound": "CCCCCN(CCCOC)C(=O)C(CCC(=O)O)NC(=O)c1ccc(Cl)c(Cl)c1 (centres undefined)",
    "tested.on": "CAOV3",
    "class.name": "inactive"
  },
  {
    "compound": "Clc1ccc2c(c1)N=C(N1CCNCC1)c1ccccc1N2",
    "tested.on": "CAOV3",
    "class.name": "inactive"
  },
  {
    "compound": "CCNC(=O)NCCCOc1cccc(CN2CCCCC2)c1",
    "tested.on": "CAOV3",
    "class.name": "inactive"
  },
  {
    "compound": "NS(=O)(=O)c1cc(C(=O)NN2C[C@H]3[C@H]4CCC(C4)[C@H]3C2)ccc1Cl",
    "tested.on": "CAOV3",
    "class.name": "inactive"
  },
  {
    "compound": "COC(=O)/C=C(/C)N",
    "tested.on": "CAOV3",
    "class.name": "inactive"
  }
]
